As shown below, each of these sequences has a reported protein stability index value.
# measurement description: protein stability index of a GFP-peptide fusion (GPS, HEK-293T) (PSI 1-6); higher = more stable;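 further: 24-mer peptide tiles fused after GFP, lentivirally expressed, FACS-sorted into six equal bins by GFP/DsRed ratio, decoded by Illumina sequencing, PSI is the read-weighted mean bin number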
# condition parameters: treatment: DMSO; c terminus: a fixed tail appended
Just the number, please, no unit after it.

Answered cases to consult:
> print(dat)
                        sequence.input  assay.value
1   KRALAEGAQIWCGEGVDKLSLPAR [ALDH8A1]         3.58
2     EEPELSPAYLISEAMRRSRMSLYC [GFOD1]         2.43
3    VGGFDGTTYLKTIEVFDPDANTWR [KLHL20]         2.91
4     QTLKAMVQAWPFTCLPLGVLMKGQ [PRAME]         2.65
5  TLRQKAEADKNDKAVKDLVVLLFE [HSP90AB1]         3.07

Please find the next sequence below.
Lookup result for EHVFDLILELYNIDSHLLLSVLPQ [PDS5B] ; measured protein stability index: 2.92

The reported numbers originate from the supplement of paper PMC10567573.
